Provide the reported Ht of each item.
- Species on record: Rattus norvegicus
- method_notes: Open TG-GATES - Regimen: Daily Repeat
- Type: toxicity, organism-based, Sprague-Dawley
- Design: regimen Daily Repeat, gender Male, age 6 weeks
- stated_conditions: in vivo, po, 0 mg/kg, […], tissue Blood, route gavage, dose level Control, time 14 day
One number for each entry, in %.

Suppose we examine the molecule COc1ccc(O)c(C(C)(C)C)c1.COc1ccc(O)cc1C(C)(C)C [BUTYLATED HYDROXYANISOLE] ; what Ht value has been reported?
40.5

Need Ht for each of these molecules.
1. CS(=O)(=O)Nc1ccc([N+](=O)[O-])cc1Oc1ccccc1 [NIMESULIDE]
2. O=C1NC(=O)C(c2ccccc2)(c2ccccc2)N1 [PHENYTOIN]
3. Cn1c(=O)c2c(ncn2C)n(C)c1=O [CAFFEINE]
4. Cn1cnc([N+](=O)[O-])c1Sc1ncnc2nc[nH]c12 [AZATHIOPRINE]
5. C=CCO [ALLYL ALCOHOL]
6. COc1ccc(Cl)cc1C(=O)NCCc1ccc(S(=O)(=O)NC(=O)NC2CCCCC2)cc1 [GLYBURIDE]

[43.2, 40.9, 41.1, 41.2, 41, 41]

// input: 2 molecules below; output: Ht for each
1. O=P1(N(CCCl)CCCl)NCCCO1 (centres undefined) [CYCLOPHOSPHAMIDE ANHYDROUS]
2. Cc1cccc(Nc2cc(Cl)nc(SCC(=O)O)n2)c1C [PIRINIXIC ACID]

40.6
41.1
